Overview of reported percent of complexes across a group of binders:
- target desc: anti-CC49 variable region antibodies in the serum of patient two
- assay details: HPLC, 125I-HuCC49 + serum + 5 Tg competitor; fewer complexes = competitor bound

# binder, percent of complexes (%)
data = [
    ("humanized monoclonal antibody HuCC49 (parental HuCC49) (antibody, V domains shown) VH: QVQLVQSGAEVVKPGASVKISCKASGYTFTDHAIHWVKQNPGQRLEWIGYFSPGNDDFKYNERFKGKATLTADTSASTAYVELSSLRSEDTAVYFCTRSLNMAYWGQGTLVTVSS VL: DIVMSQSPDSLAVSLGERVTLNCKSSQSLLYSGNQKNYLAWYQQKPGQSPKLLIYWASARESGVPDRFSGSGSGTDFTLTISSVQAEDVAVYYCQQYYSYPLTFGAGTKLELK", 0.5),
    ("HuCC49 CDR variant H-3 (antibody, V domains shown) VH: QVQLVQSGAEVVKPGASVKISCKASGYTFTDHAIHWVKQNPGQRLEWIGYFSPGNDDFKYNERFKGKATLTADTSASTAYVELSSLRSEDTAVYFCTRGGYYGSGSGSNYWGQGTLVTVSS VL: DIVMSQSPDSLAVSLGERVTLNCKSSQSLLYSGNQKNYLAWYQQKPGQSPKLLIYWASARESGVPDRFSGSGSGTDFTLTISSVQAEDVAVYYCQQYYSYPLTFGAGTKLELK", 8.2),
    ("HuCC49 CDR variant H-1 (antibody, V domains shown) VH: QVQLVQSGAEVVKPGASVKISCKASGYTFTSYAMHWVKQNPGQRLEWIGYFSPGNDDFKYNERFKGKATLTADTSASTAYVELSSLRSEDTAVYFCTRSLNMAYWGQGTLVTVSS VL: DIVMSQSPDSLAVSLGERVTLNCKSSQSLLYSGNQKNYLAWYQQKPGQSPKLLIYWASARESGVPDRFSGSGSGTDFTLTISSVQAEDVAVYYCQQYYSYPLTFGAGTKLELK", 7),
]
